Reference for the values: PubChem BioAssay (NCI)

Let's look at some molecules and their measured log10 TGI.
Tested on: PC-3 prostate
Assay: NCI tumour cell line growth inhibition, 48 h
Metric Name: log10 TGI (log10 of the value in µM)

                                   molecule  metric_name  measured
0  CC(C)[Si](OC1=CCC[C@H]2NC(=O)[C@@H](Cc3ccccc3)[C@@]12C)(C(C)C)C(C)C    log10 TGI      1.09
1  COc1ccc2sc(-n3nc4ccccc4c3Nc3nc4ccc(OC)cc4s3)nc2c1    log10 TGI      1.24
2  COc1ccc2c(c1)C(=O)c1c-2c(Nc2ccc(Cl)cc2)nc2ccccc12    log10 TGI      1.80
3                    CCCCCCCCCCCCCC[S+](C)C    log10 TGI      0.47
4  Cc1cc(C)nc(SC(C)C(=O)N/N=C/c2ccc(OCc3ccccc3)cc2)n1 (stereo unspecified)    log10 TGI      1.77
5  CCOC(=O)C(C(=S)Nc1ccccc1)c1nn2c(=O)cc(C)nc2s1 (stereo unspecified)    log10 TGI      1.82
